Origin of the recorded values: ChEMBL document CHEMBL1127349

As a worked illustration, we turn to Ki data collected for 5-hydroxytryptamine receptor 1A (Rattus norvegicus).
property-label: Ki

compound	property-label	result
CCCN(CCC)[C@@H]1CCc2ccc3[nH]cc(C#N)c3c2C1	Ki	2.7 nM
CCCN(CCC)C1CCc2ccc3c(c2C1)NCC3 (centres undefined)	Ki	410 nM
CCCN(CCC)C1CCc2ccc3[nH]cc(CC(F)(F)F)c3c2C1 (centres undefined)	Ki	182 nM
CCCN(CCC)C1CCc2cc3c(C=O)c[nH]c3cc2C1 (centres undefined)	Ki	4720 nM
CCCN(CCC)C1CCc2ccc3[nH]cc(Cl)c3c2C1 (centres undefined)	Ki	12.6 nM
CCCN(CCC)[C@H]1CCc2ccc3[nH]cc(C#N)c3c2C1	Ki	2.9 nM
CCCN(CCC)C1CCc2ccc3c(C=O)c[nH]c3c2C1 (centres undefined)	Ki	6720 nM
CCCN(CCC)C1CCc2ccc3[nH]cc(C#N)c3c2C1 (centres undefined)	Ki	1.8 nM
CCCN(CCC)C1CCc2ccc3cc[nH]c3c2C1 (centres undefined)	Ki	220 nM
